Taken from PubChem BioAssay (NCI).

Catalogue of growth readings, one per entry.
test system: COLO 205 colon; assay: NCI-60 one-dose screen, 48 h (100 = growth as untreated, 0 = no growth, -100 = all killed); conditions: 10 µM unless noted
This is part of a sample that, as a whole, favours compounds with a hit. Of some 83,000 tested, about 20% had one in any assay.
Give the value in % but do not write % after it.

Some solved entries appear below for comparison.
[
  {
    "COMPOUND": "N#C/C(=C\\c1ccc(-c2ccc(F)cc2)o1)C(=O)Nc1ncc(Cc2ccc(Cl)cc2Cl)s1",
    "TEST_READOUT": "growth",
    "TEST_VALUE": 66.8
  },
  {
    "COMPOUND": "C=CCn1c(SCC(=O)Nc2ccc(OC)cc2)nnc1-c1ccc(Cl)cc1",
    "TEST_READOUT": "growth",
    "TEST_VALUE": 107
  },
  {
    "COMPOUND": "NC(=S)N/N=C(/C=C/c1cn(-c2ccccc2)nc1-c1ccc(Cl)cc1)c1cc2ccccc2oc1=O",
    "TEST_READOUT": "growth",
    "TEST_VALUE": 38.1
  },
  {
    "COMPOUND": "O=C1Nc2ccc(Br)cc2/C1=N\\c1nnc(-c2ccc(Cl)cc2)o1",
    "TEST_READOUT": "growth",
    "TEST_VALUE": 83.3
  },
  {
    "COMPOUND": "CS(=O)c1nccc(-c2c(-c3ccc(F)c(OCc4ccccc4)c3)nc3sccn23)n1 (centres undefined)",
    "TEST_READOUT": "growth",
    "TEST_VALUE": 106
  },
  {
    "COMPOUND": "CCN(CC)c1ccc2cc(C(=O)NCCOCCOCCOCCn3cc(CCC(=O)Nc4ccc(C(=O)c5ccc(NC(=O)OC(C)(C)C)cc5)cc4)nn3)c(=O)oc2c1",
    "TEST_READOUT": "growth",
    "TEST_VALUE": 38.2
  },
  {
    "COMPOUND": "CN1C(=O)N(C)C2Nn3c(s/c(=C\\c4ccccn4)c3=O)=NC21 (centres undefined)",
    "TEST_READOUT": "growth",
    "TEST_VALUE": 110
  },
  {
    "COMPOUND": "COC(=O)[C@@]1(C)CC[C@]2(C)CC[C@]3(C)C(=CC(=O)[C@@H]4[C@@]5(C)Cc6c(n(CC#CCN7CCN(C)CC7)c7ccccc67)C(C)(C)[C@@H]5CC[C@]43C)[C@@H]2C1",
    "TEST_READOUT": "growth",
    "TEST_VALUE": 94.2
  }
]

Okay, now this compound:
Exercise: Hi! What's the reported growth for COc1ccc(Cn2cc3c(c2-c2cc(OC)c(OC)c(OC)c2)CCCc2cnoc2-3)cc1N on COLO 205 colon?
Solution: 12.7
